# measured_target: T1, RSV F ectodomain stabilized in the postfusion conformation (F ΔFP), subtype A (Respiratory syncytial virus subtype A, UniProt P03420 26-109; P03420 147-524)
# T1 construct: extracellular domain; trimer; furin-cleaved; also called Postfusion subtype A
# assay_details: BLI, IgG on AHQ sensor, 100 nM antigen
assay_metric: Kd
The number alone won't do; follow it with the unit.

Dear colleague, please send me the reported Kd for ADI-14461 (antibody, V domains shown, full-length IgG (yeast-expressed); also called Antibody Number 24; Ab# 24) VH: EVQLVESGGGVVQPGRSLRLSCAASGFTFSDHAMYWVRQAPGKGLEWVALISFDGRNIYYADSVKGRFTISRDNSKNTLYLQMNSLRAEDTAVYYCARDQWLVPDYWGQGTLVTVSS VL: LPVLTQPASVSGSPGQSITISCTGTSSDVGGYNYVSWYQQHPGNAPKLMIYEVSKRPSGVPDRFSGFKSGNTASLTVSGLQAEDEADYYCSSYAGSNSVFGTGTKLTVL when you can.
0.231 nM

Identify measured Kd corresponding to ADI-14503 (antibody, V domains shown, full-length IgG (yeast-expressed); also called Antibody Number 64; Ab# 64) VH: QVQLVQSGGGLVKPGGSLRLSCAASGFSLTNYRMNWVRQAPGKGLEWVSSLKDSSSYIYYADSVKGRFTVSRDDAKNSFFLQMTNVRAEDTAVYYCAREGSDTEYWRLTPPMDVWGNGTTVTVSS VL: QSVLTQPPSVSVAPRQTARITCGEHNIGTKSVHWYQQKPGQAPVLVIYDDSDRPSGIPARFSGSNSGNTATLTISWVEAGDEAVYYCQVWDSGDHPWLFGGGTQLTVL
26.1 nM

Value source: patent US20250313612A1
